Assayed System: delta opioid receptor (Mus musculus)
Construct: NG108-15 cell membranes were purchased from Applied Cell Sciences (Rockville, Md.)
Sequence (P32300 whole entry): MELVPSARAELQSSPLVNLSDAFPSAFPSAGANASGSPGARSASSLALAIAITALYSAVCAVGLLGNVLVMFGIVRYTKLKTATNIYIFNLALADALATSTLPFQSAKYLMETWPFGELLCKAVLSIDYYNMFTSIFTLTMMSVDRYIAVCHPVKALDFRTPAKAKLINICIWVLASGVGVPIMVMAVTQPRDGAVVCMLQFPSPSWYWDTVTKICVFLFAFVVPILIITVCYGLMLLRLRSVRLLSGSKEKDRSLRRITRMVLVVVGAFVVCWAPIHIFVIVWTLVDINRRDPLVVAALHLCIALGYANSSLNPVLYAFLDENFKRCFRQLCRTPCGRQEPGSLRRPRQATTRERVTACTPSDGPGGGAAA
Assay Protocol: NG108-15, 24-well delta opioid receptor binding assay
Experimental Conditions: NG108-15 cell membranes, ~0.2 nM [3H]Naltrindole; read-out: δ-binding NG108 cell membrane Ki
Reported Ki values follow for various molecules
Response body: numeric value in nM, unit text excluded.

Recorded Ki of COc1ccc(Oc2nc(Oc3cccnc3)ncc2NC[C@@H]2CCCN2)cc1 [Cpd 45] , please.
1.45

Please answer likewise for COc1ccc(Oc2nc(Sc3cccc(F)c3)ncc2NC[C@@H]2CCCN2)cc1 [Cpd 47]
0.739

---

Assayed System: mu opioid receptor (CHO-hMOR cell membranes) (Homo sapiens)
Sequence (P35372 whole entry): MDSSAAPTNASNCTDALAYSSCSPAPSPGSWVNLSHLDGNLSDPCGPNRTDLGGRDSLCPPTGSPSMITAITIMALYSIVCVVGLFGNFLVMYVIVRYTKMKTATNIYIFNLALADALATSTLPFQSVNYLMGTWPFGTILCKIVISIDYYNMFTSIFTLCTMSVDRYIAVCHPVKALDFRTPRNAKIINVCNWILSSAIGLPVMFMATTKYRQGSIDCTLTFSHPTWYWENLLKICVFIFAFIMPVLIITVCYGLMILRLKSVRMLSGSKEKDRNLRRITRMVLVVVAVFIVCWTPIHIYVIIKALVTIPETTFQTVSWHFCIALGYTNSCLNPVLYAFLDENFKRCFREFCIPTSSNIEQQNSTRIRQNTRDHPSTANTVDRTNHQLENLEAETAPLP
Assay Protocol: [35S]GTPγS binding assay in CHO-hMOR cell membranes (mu opioid functional assay)
Experimental Conditions: CHO-hMOR cell membranes; read-out: GTPγS μ-opioid receptor EC50
Property: pEC50
Friendly reminder that pEC50 comes from taking -log10 of the concentration in mol/L.

Quick check: pEC50 on mu opioid receptor (CHO-hMOR cell membranes) (Homo sapiens), item COc1ccc(Oc2ncc(NC[C@@H]3CCCN3)c(Oc3ccc(OC)cc3)n2)cc1 ?
4.07
